target: NUDT5 and the respective E3 ligase (Homo sapiens, UniProt P40337+Q9UKK9); test: NanoBRET ternary complex formation assay NUDT5 and the respective E3 ligase (VHL or CRBN) in HEK293 cells; format: cell-based; details: HEK293, 20 h, Supplementary Table 2
Sequence (P40337 whole entry, one chain of several): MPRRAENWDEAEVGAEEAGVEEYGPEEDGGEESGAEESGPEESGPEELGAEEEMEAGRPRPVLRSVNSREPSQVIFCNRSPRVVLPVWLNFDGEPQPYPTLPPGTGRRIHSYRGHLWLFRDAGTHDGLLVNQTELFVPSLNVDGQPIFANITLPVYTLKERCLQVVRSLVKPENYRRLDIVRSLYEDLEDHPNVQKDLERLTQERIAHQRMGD
observed.property: Ternary complex formation below 1 µM (20 h)

compound	measured
Cn1c(=O)c2c(nc(N3CCN(C(=O)CCCCCCNc4cccc5c4C(=O)N(C4CCC(=O)NC4=O)C5=O)CC3)n2Cc2nnc(-c3ccc(Cl)c(Cl)c3)o2)n(C)c1=O (stereo not drawn)	Yes
Cn1c(=O)c2c(nc(N3CCN(C(=O)CCOCCNc4cccc5c4C(=O)N(C4CCC(=O)NC4=O)C5=O)CC3)n2Cc2nnc(-c3ccc(Cl)c(Cl)c3)o2)n(C)c1=O (stereo not drawn)	Yes
Cn1c(=O)c2c(nc(N3CCN(C(=O)CCOCCOCCNc4cccc5c4C(=O)N(C4CCC(=O)NC4=O)C5=O)CC3)n2Cc2nnc(-c3ccc(Cl)c(Cl)c3)o2)n(C)c1=O (stereo not drawn)	Yes

----------
tested on: HAP1 cell lines; experiment: TH1760/6-TG cell viability assay in HAP1 cell lines; format: cell-based, human; settings: Homo sapiens; HAP1 WT cells, approximately
observed.property: IC50

Task item: With HAP1 cell lines as the test system, provide measured IC50 for this compound: Nc1nc2nc[nH]c2c(=S)[nH]1 [Compound 6-TG, 6-Thioguanine]
Reply: ~1 µM

----------
target: NUDT5 (Homo sapiens); experiment: NanoBRET NUDT5 target engagement (TE) assay in HEK293 cells; format: cell-based; design: expressed in transfected cells; host or cells: HEK293; conditions: read-out: EC50 (nM) TE (4h); HEK293, 4 h, Supplementary Table 3
observed.property: EC50 (nM)
Return type: number; implicit unit nM.

molecule	experimental.system	observed.property	units.symbol	measured
Cn1c(=O)c2c(nc(N3CCN(CCC4CCN(c5ccc6c(c5)C(=O)N(C5CCC(=O)NC5=O)C6=O)CC4)CC3)n2Cc2nnc(-c3ccc(Cl)c(Cl)c3)o2)n(C)c1=O (centres unmarked)	NUDT5 (Homo sapiens)	EC50	nM	102
Cn1c(=O)c2c(nc(N3CCN(CC4CCN(c5cc6c(cc5F)C(=O)N(C5CCC(=O)NC5=O)C6=O)CC4)CC3)n2Cc2nnc(-c3ccc(Cl)c(Cl)c3)o2)n(C)c1=O (centres unmarked)	NUDT5 (Homo sapiens)	EC50	nM	17
Cn1c(=O)c2c(nc(N3CCN(CC4CCN(c5ccc6c(c5)C(=O)N(C5CCC(=O)NC5=O)C6=O)CC4)CC3)n2Cc2nnc(-c3ccc(Cl)c(Cl)c3)o2)n(C)c1=O (centres unmarked)	NUDT5 (Homo sapiens)	EC50	nM	42
Cn1c(=O)c2c(nc(N3CCN(CC4CCN(c5ccc6c(c5)C(=O)N(C5CCC(=O)NC5=O)C6=O)C4)CC3)n2Cc2nnc(-c3ccc(Cl)c(Cl)c3)o2)n(C)c1=O (centres unmarked)	NUDT5 (Homo sapiens)	EC50	nM	103

Task item: Respond only with EC50 recorded for Cn1c(=O)c2c(nc(N3CCN(CC4CCN(c5cccc6c5C(=O)N(C5CCC(=O)NC5=O)C6=O)CC4)CC3)n2Cc2nnc(-c3ccc(Cl)c(Cl)c3)o2)n(C)c1=O (centres unmarked)
Reply: 61

----------
Molecular target: NUDT5 and the respective E3 ligase (Homo sapiens, UniProt P40337+Q9UKK9)
Test: NanoBRET ternary complex formation assay NUDT5 and the respective E3 ligase (VHL or CRBN) in HEK293 cells
Type: cell-based
Conditions: HEK293, 4 h, Supplementary Table 2
Protocol: NanoBRET ternary complex assays were performed following the manufacturer’s instructions (Promega). […] After 4 h or 20 h of incubation, a mix of substrate in assay medium was added to each well. Donor and acceptor signals were measured in a PHERAstar FSX or FS plate reader and analyzed by GraphPad Prism (v.9 or v.10). The acceptor/donor ratio was calculated, the no ligand background signal was subtracted, and multiplied by 1000 to yield mBRET units. Data were then normalized to DMSO.
observed.property: Ternary complex formation below 1 µM (4 h)

molecule	measured
Cn1c(=O)c2c(nc(N3CCN(C(=O)CCCCCCOc4cccc5c4C(=O)N(C4CCC(=O)NC4=O)C5=O)CC3)n2Cc2nnc(-c3ccc(Cl)c(Cl)c3)o2)n(C)c1=O (centres unmarked)	No
Cc1ncsc1-c1ccc(CNC(=O)C2CC(O)CN2C(=O)C(NC(=O)CCOCCOCCOCCC(=O)N2CCN(c3nc4c(c(=O)n(C)c(=O)n4C)n3Cc3nnc(-c4ccc(Cl)c(Cl)c4)o3)CC2)C(C)(C)C)cc1 (centres unmarked)	No
Cn1c(=O)c2c(nc(N3CCN(C(=O)CCCCCCCNc4cccc5c4C(=O)N(C4CCC(=O)NC4=O)C5=O)CC3)n2Cc2nnc(-c3ccc(Cl)c(Cl)c3)o2)n(C)c1=O (centres unmarked)	Yes
Cn1c(=O)c2c(nc(N3CCN(C(=O)CCCCCCCCOc4cccc5c4C(=O)N(C4CCC(=O)NC4=O)C5=O)CC3)n2Cc2nnc(-c3ccc(Cl)c(Cl)c3)o2)n(C)c1=O (centres unmarked)	Yes

Shifting focus to the molecule that follows.
Task item: With NUDT5 and the respective E3 ligase (Homo sapiens, UniProt P40337+Q9UKK9) as the test system, provide measured Ternary complex formation below 1 µM (4 h) for this molecule: Cn1c(=O)c2c(nc(N3CCN(C(=O)CCOCCNc4cccc5c4C(=O)N(C4CCC(=O)NC4=O)C5=O)CC3)n2Cc2nnc(-c3ccc(Cl)c(Cl)c3)o2)n(C)c1=O (centres unmarked)
Reply: Yes
